In this section, each of the compounds is paired with its reported MIC.
System: B. humptydooensis ATCC BAA-2767
protocol_notes: microbe, parasite or virus in culture
Assay type: cell-based
measurement_conditions: Burkholderia humptydooensis, ATCCBAA2767, read-out: Minimum inhibitory concentration (MIC), B. humptydooensis ATCC BAA-2767

O=C(NCCCN1CCN(C(=O)N[C@H](C(=O)N[C@H]2Cc3ccc(F)c(C(=O)O)c3OB2O)c2cc(F)c(O)c(O)c2Cl)C1=O)c1cccc(O)c1	> 128 µg/mL
O=C(O)c1c(F)ccc2c1OB(O)[C@@H](NC(=O)[C@H](NC(=O)N1CCN(S(=O)(=O)c3ccc(O)c(O)c3Cl)C1=O)c1ccc(P(=O)(O)O)cc1)C2	< 1 µg/mL
O=C(NCCCN1CCN(C(=O)N[C@@H](C(=O)N[C@H]2Cc3ccc(F)c(C(=O)O)c3OB2O)c2cc(F)c(O)c(O)c2Cl)C(=O)C1=O)c1cc(F)nc(F)c1 (racemic)	> 128 µg/mL
O=C(NCCS(=O)(=O)N1CCN(C(=O)N[C@@H](C(=O)N[C@H]2Cc3ccc(F)c(C(=O)O)c3OB2O)c2ccc(P(=O)(O)O)cc2)C1=O)c1ccc(O)c(O)c1Cl (single isomer, unassigned)	< 1 µg/mL
O=C(O)c1c(F)ccc2c1OB(O)[C@@H](NC(=O)[C@H](NC(=O)N1CCN(C3CCN(C(=O)c4ccncc4)CC3)C1=O)c1cc(F)c(O)c(O)c1Cl)C2	< 1 µg/mL
O=C(NCCN1CCN(C(=O)N[C@@H](C(=O)N[C@H]2Cc3ccc(F)c(C(=O)O)c3OB2O)c2cc(F)c(O)c(O)c2Cl)C1=O)Nc1ccc(O)cc1	< 1 µg/mL

Input: Query MIC on B. humptydooensis ATCC BAA-2767 for O=C(O)c1c(F)ccc2c1OB(O)[C@@H](NC(=O)C(NC(=O)N1CCN(C3CCN(S(=O)(=O)c4cccc(O)c4)CC3)C(=O)C1=O)c1cc(F)c(O)c(O)c1Cl)C2 (some centres unmarked)
Output: > 128 µg/mL

Input: Hi! What's the reported MIC for O=C(NCCCS(=O)(=O)N1CCN(C(=O)NC(C(=O)N[C@H]2Cc3ccc(F)c(C(=O)O)c3OB2O)c2cc(F)c(O)c(O)c2Cl)C1=O)c1nccs1 (some centres unmarked) on B. humptydooensis ATCC BAA-2767?
Output: 2 to 4 µg/mL

Input: Form: Entry = NCc1cccc(C(=O)N2CCC(N3CCN(C(=O)N[C@@H](C(=O)N[C@H]4Cc5ccc(F)c(C(=O)O)c5OB4O)c4cc(F)c(O)c(O)c4Cl)C3=O)CC2)c1 | System = B. humptydooensis ATCC BAA-2767 | MIC = ____
Output: < 1 µg/mL

Input: Enter reported MIC observed with B. humptydooensis ATCC BAA-2767 for O=C(O)c1c(F)ccc2c1OB(O)[C@@H](NC(=O)[C@@H](NC(=O)N1CCN(Cc3ccc(O)c(O)c3Cl)C(=O)C1=O)c1ccc(P(=O)(O)O)cc1)C2 (single isomer, unassigned)
Output: < 1 µg/mL

Input: Request - read-out MIC | tested on B. humptydooensis ATCC BAA-2767 | compound O=C(NCCCN1CCN(C(=O)N[C@@H](C(=O)N[C@H]2Cc3ccc(F)c(C(=O)O)c3OB2O)c2cc(F)c(O)c(O)c2Cl)C(=O)C1=O)c1cccnc1
Output: < 1 µg/mL

Input: Enter reported MIC observed with B. humptydooensis ATCC BAA-2767 for O=C(O)c1c(F)ccc2c1OB(O)[C@@H](NC(=O)C(NC(=O)N1CCN(CCNC(=O)[C@@H]3CCCN3)C1=O)c1cc(F)c(O)c(O)c1Cl)C2 (some centres unmarked)
Output: < 1 µg/mL

Input: Please state recorded MIC (tested on B. humptydooensis ATCC BAA-2767) of Nc1ccc(CN2CCC(N3CCN(C(=O)N[C@@H](C(=O)N[C@H]4Cc5ccc(F)c(C(=O)O)c5OB4O)c4cc(F)c(O)c(O)c4Cl)C3=O)CC2)cn1 (single isomer, unassigned)
Output: < 1 µg/mL

* * *

assay_system: PBP2 from Neisseria gonorrhoeae (FA19) (Neisseria gonorrhoeae)
Sequence (P08149 whole entry): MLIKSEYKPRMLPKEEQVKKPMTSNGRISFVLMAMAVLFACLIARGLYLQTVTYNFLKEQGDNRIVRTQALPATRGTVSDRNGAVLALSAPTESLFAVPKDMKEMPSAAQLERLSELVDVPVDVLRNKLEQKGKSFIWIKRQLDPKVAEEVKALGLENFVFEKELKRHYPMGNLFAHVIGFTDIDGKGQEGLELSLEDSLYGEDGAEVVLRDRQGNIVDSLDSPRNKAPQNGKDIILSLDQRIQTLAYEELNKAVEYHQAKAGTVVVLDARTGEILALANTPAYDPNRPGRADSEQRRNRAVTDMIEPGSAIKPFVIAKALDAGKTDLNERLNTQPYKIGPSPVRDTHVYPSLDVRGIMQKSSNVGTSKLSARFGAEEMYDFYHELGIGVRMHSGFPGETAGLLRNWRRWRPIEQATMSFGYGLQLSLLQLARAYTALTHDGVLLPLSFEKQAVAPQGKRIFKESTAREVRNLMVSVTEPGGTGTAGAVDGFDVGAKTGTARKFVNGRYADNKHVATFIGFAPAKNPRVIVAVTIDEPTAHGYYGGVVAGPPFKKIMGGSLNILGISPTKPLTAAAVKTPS
protocol_notes: Bocillin-FL fluorescence polarization competition binding, N. gonorrhoeae PBP2
measurement_conditions: fluorescence polarization competition binding assay using Bocillin-FL, read-out: N. gonorrhoeae PBP2 Potency
property: EC50

The following compounds have reported results that may help.
CS(=O)(=O)N1CCN(C(=O)N[C@@H](C(=O)N[C@H]2Cc3cccc(C(=O)O)c3OB2O)c2ccc(P(=O)(O)O)cc2)C1=O (single isomer, unassigned) [Example 6]	< 10 µM
O=C(O)c1cccc2c1OB(O)[C@@H](NC(=O)C(NC(=O)N1CCN(Cc3ccc(O)c(O)c3Cl)C(=O)C1=O)c1ccc(P(=O)(O)O)cc1)C2 (stereo partly drawn) [Example 24]	< 10 µM
CCN1CCN(C(=O)NC(C(=O)N[C@H]2Cc3cccc(C(=O)O)c3OB2O)c2ccc(CP(=O)(O)O)cc2)C(=O)C1=O (stereo partly drawn) [Example 20]	< 10 µM
CS(=O)(=O)N1CCC[C@@H]1C(=O)N[C@H](C(=O)N[C@H]1Cc2cccc(C(=O)O)c2OB1O)c1ccc(P(=O)(O)O)cc1 [Example 34]	50 to 250 µM
O=C(O)c1cccc2c1OB(O)[C@@H](NC(=O)[C@H](NC(=O)N1CCNC1=O)c1ccc(P(=O)(O)O)cc1)C2 [Example 40]	< 10 µM
CCN1CCN(C(=O)NC(C(=O)N[C@H]2Cc3cccc(C(=O)O)c3OB2O)c2c(F)cc(P(=O)(O)O)cc2F)C(=O)C1=O (stereo partly drawn) [Example 25]	< 10 µM

Input: API: value(readout=EC50, system=PBP2 from Neisseria gonorrhoeae (FA19) (Neisseria gonorrhoeae)) for record O=C(O)c1c(F)ccc2c1OB(O)[C@@H](NC(=O)C(NC(=O)N1CCN(Cc3ccc(O)c(O)c3Cl)C(=O)C1=O)c1ccc(P(=O)(O)O)cc1)C2 (stereo partly drawn) [Example 8]
Output: < 10 µM

Input: What measured EC50 is associated with CN1CCN(C(=O)NC(C(=O)N[C@H]2Cc3cccc(C(=O)O)c3OB2O)c2ccc(P(=O)(O)O)cc2)C1=O (stereo partly drawn) [Example 41] on PBP2 from Neisseria gonorrhoeae (FA19) (Neisseria gonorrhoeae)?
Output: < 10 µM

Input: Return EC50 measured with PBP2 from Neisseria gonorrhoeae (FA19) (Neisseria gonorrhoeae) given this compound: CS(=O)(=O)N1CCC[C@H]1C(=O)N[C@H](C(=O)N[C@H]1Cc2cccc(C(=O)O)c2OB1O)c1ccc(P(=O)(O)O)cc1 [Example 43]
Output: 50 to 250 µM

Input: Notebook: pull reported EC50 for PBP2 from Neisseria gonorrhoeae (FA19) (Neisseria gonorrhoeae), entry O=C(O)c1c(F)ccc2c1OB(O)[C@@H](NC(=O)C(NC(=O)N1CCN(Cc3cc(F)c(O)c(O)c3Cl)C(=O)C1=O)c1ccc(P(=O)(O)O)cc1)C2 (stereo partly drawn) [Example 45]
Output: < 10 µM

Input: API: value(readout=EC50, system=PBP2 from Neisseria gonorrhoeae (FA19) (Neisseria gonorrhoeae)) for record CS(=O)(=O)N1CCN(C(=O)N[C@@H](C(=O)N[C@H]2Cc3cccc(C(=O)O)c3OB2O)c2cc(F)c(P(=O)(O)O)c(F)c2)C1=O (single isomer, unassigned) [Example 18]
Output: < 10 µM

Input: What is its EC50 for PBP2 from Neisseria gonorrhoeae (FA19) (Neisseria gonorrhoeae)? Entry: O=C(O)c1cccc2c1OB(O)[C@@H](NC(=O)[C@@H](NC(=O)c1ccn[nH]c1=O)c1ccc(P(=O)(O)O)cc1)C2 (single isomer, unassigned) [Example 177]
Output: < 10 µM

* * *

Recorded MIC, one value per entry.
System: B. thailandensis ATCC 700388
protocol_notes: microbe, parasite or virus in culture
Type: cell-based
measurement_conditions: Burkholderia thailandensis, ATCC700388, read-out: Minimum inhibitory concentration (MIC), B. thailandensis ATCC 700388

O=C(NCCCN1CCN(C(=O)N[C@@H](C(=O)N[C@H]2Cc3ccc(F)c(C(=O)O)c3OB2O)c2cc(F)c(O)c(O)c2Cl)C1=O)c1cccc(O)c1	< 1 µg/mL
O=C(NCCCN1CCN(C(=O)N[C@@H](C(=O)N[C@H]2Cc3ccc(F)c(C(=O)O)c3OB2O)c2cc(F)c(O)c(O)c2Cl)C(=O)C1=O)c1cc(F)nc(F)c1 (racemic)	> 128 µg/mL

Input: Form: Entry = O=C(NCCCN1CCN(C(=O)NC(C(=O)N[C@H]2Cc3ccc(F)c(C(=O)O)c3OB2O)c2cc(F)c(O)c(O)c2Cl)C1=O)c1nccs1 (some centres unmarked) | System = B. thailandensis ATCC 700388 | MIC = ____
Output: < 1 µg/mL

Input: Query for B. thailandensis ATCC 700388: what MIC does the record show for O=C(O)c1c(F)ccc2c1OB(O)[C@@H](NC(=O)[C@H](NC(=O)N1CCN(C3CCN(Cc4ccncn4)CC3)C1=O)c1cc(F)c(O)c(O)c1Cl)C2 ?
Output: < 1 µg/mL

Input: Hello, I am looking for reported MIC with B. thailandensis ATCC 700388 for O=C(O)c1c(F)ccc2c1OB(O)[C@@H](NC(=O)[C@H](NC(=O)N1CCN(C3CCN(C(=O)c4ccc(O)c(O)c4Cl)CC3)C1=O)c1ccc(P(=O)(O)O)cc1)C2 . Could you help?
Output: < 1 µg/mL
